- System: Muscle tissue
- experimentalProtocol: Biodistribution in muscle of C57BL/6J mouse harboring mouse B16-Bl6 cells at 8 to 12 MBq, iv after 1 hr by PET analysis
- Format: ADME, organism-based
- measurementSetup: in vivo
observedProperty: Drug uptake (% ID/g)
Dear colleague, please return just the value in % ID/g, with no unit written.

Sample records with Drug uptake:
| querySmiles | resultUnit | Drug uptake |
| --- | --- | --- |
| CCN(CC[18F])CCNC(=O)c1cnc2cc(I)ccc2n1 | % ID/g | 1.02 |
| CCN(CCNC(=O)c1cnc2cc(I)ccc2n1)CCOCCOCCOCC[18F] | % ID/g | 1.37 |
| CCN(C/C=C/C[18F])CCNC(=O)c1cnc2cc(I)ccc2n1 | % ID/g | 0.83 |
| CCN(CCNC(=O)c1cnc2cc(I)ccc2n1)CCOCCOCCOCCOCCOCCOCCOCC[18F] | % ID/g | 1.01 |
| CCN(CCC[18F])CCNC(=O)c1cnc2cc(I)ccc2n1 | % ID/g | 0.9 |

Summary for this compound, CCN(CC#CC[18F])CCNC(=O)c1cnc2cc(I)ccc2n1 : Drug uptake is 0.82

Entry source: ChEMBL document CHEMBL2440113
